Ref: the kinase profiling compilation of Christmann-Franck et al. (2016)

biological target: CHEK2 (human) (UniProt O96017); experiment: radiometric filter-binding kinase assay, Kinase HotSpot; settings: compound 0.5 µM; ATP 10 µM
Sequence (O96017 whole entry, looked up): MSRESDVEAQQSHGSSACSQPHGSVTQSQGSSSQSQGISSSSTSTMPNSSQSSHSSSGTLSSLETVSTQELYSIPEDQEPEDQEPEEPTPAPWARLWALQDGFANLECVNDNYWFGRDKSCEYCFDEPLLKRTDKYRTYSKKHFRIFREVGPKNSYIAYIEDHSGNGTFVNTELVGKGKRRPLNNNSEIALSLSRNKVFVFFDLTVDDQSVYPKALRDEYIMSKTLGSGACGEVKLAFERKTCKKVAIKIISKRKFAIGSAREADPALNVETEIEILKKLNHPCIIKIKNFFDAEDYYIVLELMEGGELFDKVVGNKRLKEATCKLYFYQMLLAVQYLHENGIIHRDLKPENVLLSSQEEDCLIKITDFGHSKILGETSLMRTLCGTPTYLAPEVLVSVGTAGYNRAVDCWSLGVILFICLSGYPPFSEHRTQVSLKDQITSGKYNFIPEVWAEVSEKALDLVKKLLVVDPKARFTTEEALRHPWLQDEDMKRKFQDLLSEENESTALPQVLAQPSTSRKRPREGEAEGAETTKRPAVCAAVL
# note: exactly 90% is not below, so it is f; use t for residual activity strictly under it

Please review the entries below; each comes with its answer.
Compound	Assigned category
CC(C)n1cnc2c(Nc3cccc(Cl)c3)nc(NCCO)nc21	t
NC(=O)c1ccc(N(C(N)=O)c2c(F)cccc2F)nc1-c1ccc(F)cc1F	f
CSc1nc(-c2ccc(F)cc2)c(-c2ccnc(NC(C)c3ccccc3)c2)[nH]1 (stereo not given)	f

Turning now to a further record.
Please check: residual activity for `CCCNC(=O)Nc1ccc(Oc2ncnc3cc(OC)c(OC)cc23)cc1Cl` , strictly under 90% or not?
t
